SYSTEM_UNDER_TEST: human GLP-1 receptor (human, UniProt P43220 24-463)
Sequence (P43220 24-463): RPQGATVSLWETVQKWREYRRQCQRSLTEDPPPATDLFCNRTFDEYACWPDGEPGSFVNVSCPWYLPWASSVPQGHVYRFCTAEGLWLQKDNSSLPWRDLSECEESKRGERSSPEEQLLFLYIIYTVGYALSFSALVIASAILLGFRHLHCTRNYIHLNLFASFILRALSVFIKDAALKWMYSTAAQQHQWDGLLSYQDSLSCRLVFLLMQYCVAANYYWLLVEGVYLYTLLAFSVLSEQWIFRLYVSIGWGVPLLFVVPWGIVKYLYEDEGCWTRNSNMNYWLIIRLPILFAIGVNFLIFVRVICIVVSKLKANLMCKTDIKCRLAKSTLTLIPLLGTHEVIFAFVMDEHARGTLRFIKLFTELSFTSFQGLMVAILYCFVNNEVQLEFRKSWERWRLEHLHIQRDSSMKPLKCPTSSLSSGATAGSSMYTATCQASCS
EXPERIMENTAL_PROTOCOL: cell-based or functional assay
Starred links: 1 amine or outer side, 2 acyl side, 3 side chain; linkers in the order of their positions; H or OH if unused. Non-standard residues stand in square brackets, D forms with d. No end group written: not given here. AMCB = 2-amino-5-(4-chloro-2-methylphenyl)pentanoic acid, Cc1cc(Cl)ccc1CCC[C@H](N[*:1])C(=O)[*:2]; Bip(2'-Et-4'-OMe) = CCc1cc(OC)ccc1-c1ccc(C[C@H](N)C(=O)O)cc1; Leu(5,5,5,5',5',5'-F6) = N[C@@H](CC(C(F)(F)F)C(F)(F)F)C(=O)O; 2F‑APPA = 2-amino-5-(2-fluorophenyl)pentanoic acid; αMePhe(2-F) = C[C@](N)(Cc1ccccc1F)C(=O)O; hhPhe = N[C@@H](CCCc1ccccc1)C(=O)O; aThr = C[C@H](O)[C@H](N)C(=O)O; CNB = not defined here; Aib = CC(C)(N)C(=O)O
ASSAY_READOUT: cAMP release, % activity, 1 nM (%)

BINDER | U | cAMP release, % activity, 1 nM
H[Aib][Leu(5,5,5,5',5',5'-F6)]GT[αMePhe(2-F)][aThr]SD[Bip(2'-Et-4'-OMe)][2F‑APPA] [Seq. ID. No. 224: H-Aib-(Hfl)-GT-(α-Me-2F-Phe)-T(allo)-SD-Bip(OMe)-(2F-APPA)] | % | 99

I = H[Aib][CNB]G[aThr][αMePhe(2-F)][aThr]SD[Bip(2'-Et-4'-OMe)][hhPhe] (reading uncertain) [Seq. ID. No. 114: H-Aib-(CNB)-G-T(allo)-(α-Me-2F-Phe)-T(allo)-SD-Bip(OMe)-(APPA)]
II = H[Aib][CNB]GTFTSD[Bip(2'-Et-4'-OMe)][AMCB] (reading uncertain) [Seq. ID. No. 32: H-Aib-(CNB)-GTFTSD-Bip(OMe)-(AMCB)]
Select the item whose cAMP release, % activity, 1 nM value is smaller, choosing between I and II . Please reply using the label of the selected record.
II
(II: 39%, I: 82%)
